Ref: ChEMBL document CHEMBL4513216

# TEST METHOD NOTES: Toxicity liver stage against HepG2, at 10uM
# Assay type: cell-based
# Parameters: test concentration 10 uM, cell line HepG2-A16-CD81EGFP
# COND: human, HepG2-A16-CD81EGFP cells; read-out: INHIBITION
// reported cytotoxicity at 10 µM for each item listed
ATTRIBUTE MEASURED: cytotoxicity at 10 µM (%)

>>> df
                                    compound  quantitative_result
 0  CC(C)N(C)[C@@H]1CCN(S(C)(=O)=O)[C@H]1Cc1ccccc1                  5.7
 1  Cc1cc(CN2CCOC(CN(C)C)C2)no1 (configuration not stated)               -0.759
 2     COc1ccc(-c2cn([C@H](CO)CC(C)C)nn2)cn1                -2.03
 3           Cc1noc(CN(C)Cc2ccc3c(c2)OCO3)n1                -13.2
 4  CC(NC(=O)CSCC#N)c1cccc(NC(=O)c2ccccc2)c1 (configuration not stated)                -1.79
 5  O=C1COC2(CCN(C(=O)c3ccoc3)CC2)CN1Cc1ccccn1                -1.11
 6              c1cc(C2CCN(c3cnccn3)CC2)ccn1                 3.94
 7  O=C(CNCC1CCCN1c1cccnn1)NCCc1cccs1 (configuration not stated)                -6.84
 8      CN(Cc1ccc(C#N)cc1)c1ncc(C(N)=O)cc1Cl                 18.5
 9  CCOc1ccccc1CC(=O)N1C[C@@H](C(=O)O)[C@H](c2ccncc2)C1                 9.15
10  Cc1ccc(C)c(CC(=O)Nc2cccc(C(=O)N(C)C)n2)c1                -6.56
11  CCN(CCOC)C(=O)c1cc(COc2ccc3c(c2)CCCC3)on1                 -146

----------
# TEST METHOD NOTES: Toxicity liver stage against HepG2, at 10uM
# Format: cell-based
# Set-up: test concentration 10 uM, cell line HepG2-A16-CD81EGFP
# COND: human, HepG2-A16-CD81EGFP cells; read-out: INHIBITION
ATTRIBUTE MEASURED: cytotoxicity at 10 µM (%)

In [3]: df
Out[3]:
                                    molecule     attribute_measured  quantitative_result
 0          c1ccc(CC2(CNCc3ncc[nH]3)CCC2)cc1  cytotoxicity at 10 µM                0.458
 1  COC(=O)C(c1cc(F)ccc1F)N(C)C(=O)c1ccnc(C)n1 (centres undefined)  cytotoxicity at 10 µM               -0.337
 2  Cc1cc(F)c(S(=O)(=O)NCc2ccnc(N(C)C)n2)cc1F  cytotoxicity at 10 µM                 -156
 3  Cc1cc(C)c2[nH]c(=O)c(CN3CCC(O)(CN(C)C)C3)cc2c1 (centres undefined)  cytotoxicity at 10 µM                -2.99
 4            Cc1cccc(CN2CCc3ncnc(C)c3CC2)n1  cytotoxicity at 10 µM                -17.4
 5  CNC(=O)[C@@H]1CC[C@@H]2[C@@H](CCN2Cc2ccccc2F)O1  cytotoxicity at 10 µM                  8.1
 6  c1ccc(CCN2CCCC(c3ccnc4nccn34)C2)cc1 (centres undefined)  cytotoxicity at 10 µM                 4.22
 7         COc1ccc(-c2nnc(CNCCn3cccn3)o2)cc1  cytotoxicity at 10 µM                -14.5
 8  Cc1cc(-c2ccnn2C)nc(C2CCCN(S(C)(=O)=O)C2)n1 (centres undefined)  cytotoxicity at 10 µM                 3.33
 9    CNC(=O)c1cccc(NC(=O)NCc2ccc(SC)cc2)c1C  cytotoxicity at 10 µM                -4.44
10  CCN1CCc2c(cccc2NC(=O)N(C)C2CCSC2)C1 (centres undefined)  cytotoxicity at 10 µM                -49.1
11  CCc1nc(CC(=O)N2CCn3c(nnc3C(F)(F)F)C2)cs1  cytotoxicity at 10 µM                -9.29
12  Cc1cccc(C)c1OC1CN(C(=O)C2CCCN(C(=O)N(C)C)C2)C1 (centres undefined)  cytotoxicity at 10 µM               -0.545
13  CC1CCN(CCCNC(=O)NC(C)c2nncn2C)CC1 (centres undefined)  cytotoxicity at 10 µM                -11.6
14  CN(C)c1ncc(-c2ccc(NC(=O)[C@@H]3CCCCN3)cc2)cn1  cytotoxicity at 10 µM                -7.94
15         O=C(NCC1CC1)c1cc(Cl)c2c(c1)OCCCO2  cytotoxicity at 10 µM                0.344
16   COc1ccccc1C1(CNc2nnc(C)c(C)c2C#N)CCOCC1  cytotoxicity at 10 µM                 6.77
17  Cc1cc(C)nc(N2CCN(Cc3cc4n(n3)CCNC4)CC2)n1  cytotoxicity at 10 µM                -8.46
18  Cc1ccc(-c2ccc(C3CNCCO3)nc2)cc1 (centres undefined)  cytotoxicity at 10 µM                 -5.3
19  CC[C@H]1CN2CC[C@H]1C[C@@H]2CNC(=O)Nc1cccc(C(F)(F)F)c1  cytotoxicity at 10 µM                0.676
20           CCN(CCNC(=O)c1cccnc1OCCOC)C1CC1  cytotoxicity at 10 µM               -0.966
21  O=C(CCc1cncc(F)c1)NS(=O)(=O)c1ccc(F)cc1F  cytotoxicity at 10 µM                -7.49
22  CCN(CC)C1COc2ccc(Br)cc2C1=O (centres undefined)  cytotoxicity at 10 µM                -7.16
23  CC(=O)N[C@@H]1CN(C(=O)c2cnccn2)C[C@H]1c1ccc(C)cc1  cytotoxicity at 10 µM                 6.62

----------
# TEST METHOD NOTES: Toxicity liver stage against HepG2, at 10uM
# Type: cell-based
# Set-up: test concentration 10 uM, cell line HepG2-A16-CD81EGFP
# COND: human, HepG2-A16-CD81EGFP cells; read-out: INHIBITION
// reported cytotoxicity at 10 µM per item
ATTRIBUTE MEASURED: cytotoxicity at 10 µM

>>> print(df.to_string())
                                    molecule     attribute_measured    result
 0        O=C(N1CCCC1)N1C[C@@H]2CCNC[C@@H]21  cytotoxicity at 10 µM    0.375%
 1  Cc1cc(NC(=O)C(C#N)Cc2cnn(C)c2C)no1 (stereo not drawn)  cytotoxicity at 10 µM     4.58%
 2        COc1cc(C)nc(N2CCN(Cc3nccn3C)CC2)n1  cytotoxicity at 10 µM     -1.8%
 3      Cn1ccc(C(=O)NCc2ccccc2CN2CCCC2)cc1=O  cytotoxicity at 10 µM    -17.1%
 4  CC1=Nc2c(c(O)nn2C2CCOCC2)C(c2cccnc2)S1 (stereo not drawn)  cytotoxicity at 10 µM     5.11%
 5  COC(=O)NCC(=O)NC1CC(C)(C)Cc2oc(C)cc21 (stereo not drawn)  cytotoxicity at 10 µM    -20.8%
 6  COc1cccc(Nc2nc(C3CCCNC3)c3sc(C)c(C)n23)c1 (stereo not drawn)  cytotoxicity at 10 µM    -4.93%
 7  COCCN1CCCC(O)(CN2CCN(c3ccncc3C)CC2)C1=O (stereo not drawn)  cytotoxicity at 10 µM    -6.45%
 8    Cc1nn(C)c(N(C)C)c1CNCCOc1ccc2c(c1)OCO2  cytotoxicity at 10 µM    -1.34%
 9  O=C1CCC(c2nc(C3CCN(C(=O)C4CC4)CC3)no2)N1 (stereo not drawn)  cytotoxicity at 10 µM     -1.7%
10             N#Cc1cccnc1NCCNC(=O)N1CCCSCC1  cytotoxicity at 10 µM    -10.8%
11  CNC(=O)c1ccc2c(c1)C1(CCN(CC(C)C)CC1)C(=O)N2  cytotoxicity at 10 µM    -2.56%
12  COCC1CN(C(=O)CNC(C)=O)Cc2ncnn2C1 (stereo not drawn)  cytotoxicity at 10 µM    -12.4%
13  CNC(=O)C1Cn2ccnc2C2(CCN(C(=O)c3ccccn3)CC2)O1 (stereo not drawn)  cytotoxicity at 10 µM     -144%
14       CS(=O)(=O)Cc1nc(CN2CCCc3sccc3C2)cs1  cytotoxicity at 10 µM     7.28%
15  CN(C)C(=O)COCC1CN(Cc2ccoc2)Cc2nnn(C)c21 (stereo not drawn)  cytotoxicity at 10 µM     1.81%
16   NC(=O)C1CCN(C(=O)NCc2ccc3c(c2)OCCO3)CC1  cytotoxicity at 10 µM    -8.14%
17   CC(=O)c1c(C)nn(S(=O)(=O)c2ccc(F)cc2)c1C  cytotoxicity at 10 µM     3.25%
18  COc1ccccc1CN1CC[C@H]2[C@@H](C1)[C@H](c1ccsc1)CN2C(C)=O  cytotoxicity at 10 µM    -12.4%
19  CC(C)c1nnsc1CNC(=O)C1CCN(C(=O)C2CCCC2)CC1  cytotoxicity at 10 µM     1.05%
20            C=C(C)CN1CCN(Cc2cnc(OC)nc2)CC1  cytotoxicity at 10 µM     5.16%
21    Cc1nc(-c2ccccc2)cc2nn(CC(N)=O)c(=O)n12  cytotoxicity at 10 µM    0.301%
22                 COc1ccc2c(ccn2CCC(=O)O)c1  cytotoxicity at 10 µM     15.4%
23        Cc1nn(C)c(N(C)C)c1CNCc1cccnc1N(C)C  cytotoxicity at 10 µM     1.84%
24                Cc1nc(-c2cc(C(=O)O)co2)cs1  cytotoxicity at 10 µM     3.39%
25  CCS(=O)(=O)CC(=O)NC(c1ccccc1)C1CCCCC1 (stereo not drawn)  cytotoxicity at 10 µM    -4.01%
26    CNS(=O)(=O)c1cccc(CNC(=O)c2cc(C)no2)c1  cytotoxicity at 10 µM    -10.3%
27        Cc1nn(C)c2nc(N(Cc3nccs3)C3CC3)sc12  cytotoxicity at 10 µM    -45.9%
28      CC(C)CC(=O)Nc1ccc(Oc2ccsc2C(=O)O)cc1  cytotoxicity at 10 µM     7.66%
29      O=C(c1nn[nH]c1Nc1ccc(Cl)cc1)N1CCSCC1  cytotoxicity at 10 µM     4.67%
30  CCN(CC(F)(F)F)C(=O)C1CCCN(Cc2cscn2)C1 (stereo not drawn)  cytotoxicity at 10 µM    -8.64%
31  CCC1CCCCN1C(=O)Cn1nc(-c2ccc(C)o2)cc(N)c1=O (stereo not drawn)  cytotoxicity at 10 µM     3.27%
32                O=C(NCCn1ccnc1)c1csc(Br)c1  cytotoxicity at 10 µM       13%
33  COCCN1CCN(Cc2cccnc2)[C@H]2CS(=O)(=O)C[C@H]21  cytotoxicity at 10 µM     6.03%
34  Cn1c(CNCC2CCCN2c2cccnn2)nc2ccccc21 (stereo not drawn)  cytotoxicity at 10 µM    -18.2%
35  CCc1nc(CN2CCCC(N(C)CCn3cccn3)C2)no1 (stereo not drawn)  cytotoxicity at 10 µM    -11.5%
36  Cc1c(C(=O)N2CCCC2c2cnn(C)c2)nnn1-c1ccccc1 (stereo not drawn)  cytotoxicity at 10 µM    -11.4%
37  O=C([C@H]1C[C@H]2OCC[C@H]2N(C(=O)C2CCOCC2)C1)N1CCCCO1  cytotoxicity at 10 µM    -8.28%
38  CCc1ccc(C(NCC(N)=O)C(C)(C)C)o1 (stereo not drawn)  cytotoxicity at 10 µM    -7.21%
39  Cc1cc(CN(C)C(=O)c2cccc(N3CCCS3(=O)=O)c2)no1  cytotoxicity at 10 µM    -10.2%
40  COCCN(CC1CCCN(C2Cc3ccccc3C2)C1)C(=O)CSC (stereo not drawn)  cytotoxicity at 10 µM    -1.66%
41   COc1ccc2cc(CNCc3c(C)nn(C)c3N(C)C)ccc2c1  cytotoxicity at 10 µM    -20.4%
42  Cc1cc(OCC(N)=O)ccc1NC(=O)C(C)Cc1ccccc1F (stereo not drawn)  cytotoxicity at 10 µM  -0.0944%
43  CN(Cc1cc2cc(F)ccc2[nH]1)C(=O)C1CC(=O)N(C(C)(C)C)C1 (stereo not drawn)  cytotoxicity at 10 µM    0.993%
44  Cc1ccc(N(C)C2CCCN(C(=O)Nc3ccc(F)cc3F)C2)cc1 (stereo not drawn)  cytotoxicity at 10 µM    -8.19%
45       O=C(Cc1ccc(Br)s1)NCC(=O)Nc1cn[nH]c1  cytotoxicity at 10 µM     2.06%
46  Cc1cc(CN2CCC(CNS(=O)(=O)c3ccc(Br)s3)CC2)c(C)o1  cytotoxicity at 10 µM    -2.72%
47           CC1CCN(C(=O)c2sccc2-n2cnnn2)CC1  cytotoxicity at 10 µM     9.33%
